experimentDescription: A549 cell viability effects, profiling panel, calcein-AM fluorescence, 48 h, basal (AID 1162); also: test concentration not given here
conditionDetails: higher = more signal
Recorded z-score, one value per entry.

Given COC(=O)[C@H](C)NC(=O)CCC1CC(OC(=O)NCCc2ccc(F)cc2)CC2(CCCC(COC(=O)NCCc3ccccc3OC)O2)O1 (some centres undefined) , state its recorded z-score. -0.0621

====

experimentDescription: E. coli growth modulation, two-sided OD650, primary screen, E. coli filamentation project, strain DRC41, 24 h (AID 1093);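 also: MC1000 strain lacking acrAB efflux and sulA so SOS filamentation is blocked; test concentration not given here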
conditionDetails: OD650, 24 h, higher = more signal, called active from +8 up or from −8 down
Reported z-score values for a set of compounds
Please reply with the number alone, leaving off any unit.

Sample answers from the record:
{"compound": "CC(CCN1CCc2nc(-c3ccccc3)c(-c3ccccc3)cc2C1)=NOC(C)CN1CCCc2nc(C)c(C)cc21 (configuration not stated)", "measValue": 0.419}
{"compound": "CC(C)[C@@H](OCc1ccccc1)[C@H](C)C=NO[C@@H](C)c1cn([C@H](CO)Cc2ccccc2)nn1", "measValue": 0.96}
{"compound": "COc1cccc([C@H]2Oc3ccc(OC)cc3C(=NOCC[C@@H]3C=C[C@H](OC(C)=O)[C@@H](COC(C)=O)O3)[C@@H]2O)c1", "measValue": 0.677}

Given CC(=O)OC[C@H]1O[C@@H](ON=C(C)CCN2CCCCc3nc(C)c(C)cc32)[C@H](OC(C)=O)[C@@H](OC(C)=O)[C@@H]1OC(C)=O , state its recorded z-score. -0.871

Returns the measured z-score for the input compound. Input: O=C1[C@H]2[C@H]3[C@H](O)[C@H](O)CC(=NO[C@@H]4O[C@H](CO)[C@@H](O)[C@H](O)[C@H]4O)[C@@H]3CC[C@H]2C(=O)N1C1CCCCC1 -0.166

Which value of z-score has been reported for CCc1cc2c(nc1CC)CCN(CCC(C)=NOC(C)CN1CCCCc3nc(C)c(C)cc31)C2 (configuration not stated) in the records? 0.546

Give the measured z-score of CC[C@@H](c1ccccc1)n1c(=O)n2n(c1=O)[C@H]1[C@H](O)[C@@H]3O[C@@H]3C(=NOCc3ccccc3)[C@H]1CC2 . -0.866
